Molecular target: Prostaglandin G/H synthase 2 (Homo sapiens) (UniProt P35354)
Sequence (whole entry): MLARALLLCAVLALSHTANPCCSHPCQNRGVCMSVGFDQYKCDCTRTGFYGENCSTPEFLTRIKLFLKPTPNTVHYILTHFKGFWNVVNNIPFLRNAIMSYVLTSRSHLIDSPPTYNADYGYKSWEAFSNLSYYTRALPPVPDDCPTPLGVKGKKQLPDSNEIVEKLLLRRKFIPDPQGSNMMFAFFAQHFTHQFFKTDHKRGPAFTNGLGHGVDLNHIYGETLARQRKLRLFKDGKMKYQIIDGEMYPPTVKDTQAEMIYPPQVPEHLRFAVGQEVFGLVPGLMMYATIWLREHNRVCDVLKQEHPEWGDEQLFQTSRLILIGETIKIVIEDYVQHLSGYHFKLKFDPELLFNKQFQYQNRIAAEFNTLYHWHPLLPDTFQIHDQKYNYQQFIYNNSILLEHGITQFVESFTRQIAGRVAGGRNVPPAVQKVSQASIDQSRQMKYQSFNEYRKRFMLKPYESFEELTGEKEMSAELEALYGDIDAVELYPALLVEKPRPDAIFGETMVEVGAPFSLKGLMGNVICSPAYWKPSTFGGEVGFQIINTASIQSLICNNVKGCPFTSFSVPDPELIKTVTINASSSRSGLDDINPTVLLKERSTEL
Experiment: Inhibition of cyclooxygenase-2 in Homo sapiens (human) whole blood assessed as LPS-induced PGE2 production at 100 uM incubated 15 min prior to LPS challenge measured after 24 hr by enzyme immunoassay
Would you kindly list inhibition for each of these compounds?

Summary: "Cc1ccc(-c2cc(N)cc(-c3ccccc3)c2)cc1" , Prostaglandin G/H synthase 2 (Homo sapiens) (UniProt P35354), inhibition = 95%

Summary: "Cc1ccc(-c2cc(N)cc(-c3ccc(C)cc3)c2)cc1" , Prostaglandin G/H synthase 2 (Homo sapiens) (UniProt P35354), inhibition = 86%

Summary: "Nc1cc(-c2ccc(Cl)cc2)cc(-c2ccc(Cl)cc2)c1" , Prostaglandin G/H synthase 2 (Homo sapiens) (UniProt P35354), inhibition = 99%

Summary: "Nc1cc(-c2ccccc2)cc(-c2ccccc2)c1" , Prostaglandin G/H synthase 2 (Homo sapiens) (UniProt P35354), inhibition = 92%

Summary: "Nc1cc(-c2ccccc2)cc(-c2ccc(Cl)cc2)c1" , Prostaglandin G/H synthase 2 (Homo sapiens) (UniProt P35354), inhibition = 98%

----------
measure name: IC50 (µM)
# unit: µM | format: bare number

Summary: "Cc1c(CC(=O)O)cc(-c2ccccc2)cc1-c1ccccc1" , Prostaglandin G/H synthase 1 (Homo sapiens, UniProt P23219), IC50 = 17

----------
biological target: Prostaglandin G/H synthase 2 (Homo sapiens) (UniProt P35354); experiment: Inhibition of cyclooxygenase-2 in Homo sapiens (human) whole blood assessed as LPS-induced PGE2 production at 100 uM incubated 15 min prior to LPS challenge measured after 24 hr by enzyme immunoassay
Calls of active or inactive are those of the source. The calls are words filed in the database; no cut-off is given here.
measure name: inhibition

>>> result("CSc1ccc(-c2cc(N)cc(-c3ccccc3)c2)cc1")
"inactive"
>>> result("CCOc1ccc(-c2cc(N)cc(-c3ccccc3)c2)cc1")
"inactive"
>>> result("COc1ccc(-c2cc(N)cc(-c3ccccc3)c2)cc1")
"78%"
>>> result("CCOc1ccc(-c2cc(N)cc(-c3ccc(OCC)cc3)c2)cc1")
"inactive"

Origin of measurements: ChEMBL document CHEMBL3044614
